- Subject Of Test: Integrin alpha-4/beta-1 (Homo sapiens, UniProt P05556+P13612)
- Sequence (P05556 whole entry): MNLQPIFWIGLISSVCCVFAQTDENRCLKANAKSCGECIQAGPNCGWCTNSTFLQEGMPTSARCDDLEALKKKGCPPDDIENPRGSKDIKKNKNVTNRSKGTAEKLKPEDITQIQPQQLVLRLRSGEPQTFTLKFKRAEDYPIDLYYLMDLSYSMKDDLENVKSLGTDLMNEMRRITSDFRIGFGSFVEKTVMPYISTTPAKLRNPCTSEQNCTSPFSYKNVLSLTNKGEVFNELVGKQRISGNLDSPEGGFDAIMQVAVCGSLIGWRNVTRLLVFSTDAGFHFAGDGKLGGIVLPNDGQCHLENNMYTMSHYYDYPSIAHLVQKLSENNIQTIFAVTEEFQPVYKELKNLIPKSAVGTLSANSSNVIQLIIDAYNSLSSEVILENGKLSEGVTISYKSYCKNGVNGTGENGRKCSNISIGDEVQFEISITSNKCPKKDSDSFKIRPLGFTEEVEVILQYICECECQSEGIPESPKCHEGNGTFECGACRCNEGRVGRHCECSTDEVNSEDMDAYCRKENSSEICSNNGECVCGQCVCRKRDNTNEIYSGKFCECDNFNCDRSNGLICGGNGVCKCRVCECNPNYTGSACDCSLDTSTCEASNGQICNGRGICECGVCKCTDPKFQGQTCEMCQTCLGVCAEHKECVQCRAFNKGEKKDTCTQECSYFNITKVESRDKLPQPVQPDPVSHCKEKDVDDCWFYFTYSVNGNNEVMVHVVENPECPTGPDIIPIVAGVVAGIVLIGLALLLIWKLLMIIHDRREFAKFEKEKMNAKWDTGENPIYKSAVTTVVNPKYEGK
- Sequence (P13612 whole entry): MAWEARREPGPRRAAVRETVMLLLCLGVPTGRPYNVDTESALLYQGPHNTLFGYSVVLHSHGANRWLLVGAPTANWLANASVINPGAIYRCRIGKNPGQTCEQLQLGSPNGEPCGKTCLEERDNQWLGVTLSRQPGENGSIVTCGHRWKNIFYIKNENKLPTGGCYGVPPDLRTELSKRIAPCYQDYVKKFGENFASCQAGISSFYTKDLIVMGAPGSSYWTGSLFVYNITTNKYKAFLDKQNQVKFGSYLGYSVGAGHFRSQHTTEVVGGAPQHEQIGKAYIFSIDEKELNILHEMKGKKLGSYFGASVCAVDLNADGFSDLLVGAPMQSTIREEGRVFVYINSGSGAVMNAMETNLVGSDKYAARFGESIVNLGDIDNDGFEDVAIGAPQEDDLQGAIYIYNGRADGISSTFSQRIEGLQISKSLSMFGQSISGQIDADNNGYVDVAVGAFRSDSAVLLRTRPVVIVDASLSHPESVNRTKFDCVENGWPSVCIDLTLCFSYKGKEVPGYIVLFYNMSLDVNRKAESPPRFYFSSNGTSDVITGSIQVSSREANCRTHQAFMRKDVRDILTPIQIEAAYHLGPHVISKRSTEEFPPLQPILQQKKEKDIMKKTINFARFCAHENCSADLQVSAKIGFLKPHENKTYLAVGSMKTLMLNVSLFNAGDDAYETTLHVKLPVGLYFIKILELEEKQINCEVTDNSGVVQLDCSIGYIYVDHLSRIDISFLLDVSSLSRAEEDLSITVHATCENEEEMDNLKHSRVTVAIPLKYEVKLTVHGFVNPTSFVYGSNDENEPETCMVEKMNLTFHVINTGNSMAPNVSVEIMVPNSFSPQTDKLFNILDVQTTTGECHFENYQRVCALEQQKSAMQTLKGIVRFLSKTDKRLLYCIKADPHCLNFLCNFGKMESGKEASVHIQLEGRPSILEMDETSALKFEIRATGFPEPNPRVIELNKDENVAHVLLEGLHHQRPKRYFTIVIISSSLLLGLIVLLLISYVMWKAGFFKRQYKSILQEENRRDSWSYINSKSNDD
- Method Description: Inhibition of human alpha4beta1 integrin expressed in human Jurkat cells assessed as inhibition of cell adhesion to VCAM-1
- Assay type: cell-based
Quantity Measured: IC50 (nM)

P: Cc1ccccc1NC(=O)N1CC=C(C(=O)NCc2ccc(NC(=O)CC(=O)O)cc2)[C@H]1C(C)C
Q: Cc1ccccc1NC(=O)Nc1ccc(CNC(=O)C2=CCN(C(=O)CC(=O)O)[C@@H]2C(C)C)cc1
R: Cc1ccccc1NC(=O)N1CC=C(C(=O)NCc2ccc(NC(=O)CC(=O)O)cc2)[C@@H]1C(C)C
S: Cc1ccccc1NC(=O)Nc1ccc(CNC(=O)C2=CCN(C(=O)CC(=O)O)[C@@H]2C2CCCCC2)cc1
Reorder the records above by IC50 so that values decrease. Enter labels, ranked according to the request.
P, R, S, Q
(P: 250 nM, R: 110 nM, S: 62 nM, Q: 10 nM)

====

- Subject Of Test: Integrin alpha-V/beta-3 (Homo sapiens, UniProt P05106+P06756)
- Sequence (P05106 27-788 limits assumed): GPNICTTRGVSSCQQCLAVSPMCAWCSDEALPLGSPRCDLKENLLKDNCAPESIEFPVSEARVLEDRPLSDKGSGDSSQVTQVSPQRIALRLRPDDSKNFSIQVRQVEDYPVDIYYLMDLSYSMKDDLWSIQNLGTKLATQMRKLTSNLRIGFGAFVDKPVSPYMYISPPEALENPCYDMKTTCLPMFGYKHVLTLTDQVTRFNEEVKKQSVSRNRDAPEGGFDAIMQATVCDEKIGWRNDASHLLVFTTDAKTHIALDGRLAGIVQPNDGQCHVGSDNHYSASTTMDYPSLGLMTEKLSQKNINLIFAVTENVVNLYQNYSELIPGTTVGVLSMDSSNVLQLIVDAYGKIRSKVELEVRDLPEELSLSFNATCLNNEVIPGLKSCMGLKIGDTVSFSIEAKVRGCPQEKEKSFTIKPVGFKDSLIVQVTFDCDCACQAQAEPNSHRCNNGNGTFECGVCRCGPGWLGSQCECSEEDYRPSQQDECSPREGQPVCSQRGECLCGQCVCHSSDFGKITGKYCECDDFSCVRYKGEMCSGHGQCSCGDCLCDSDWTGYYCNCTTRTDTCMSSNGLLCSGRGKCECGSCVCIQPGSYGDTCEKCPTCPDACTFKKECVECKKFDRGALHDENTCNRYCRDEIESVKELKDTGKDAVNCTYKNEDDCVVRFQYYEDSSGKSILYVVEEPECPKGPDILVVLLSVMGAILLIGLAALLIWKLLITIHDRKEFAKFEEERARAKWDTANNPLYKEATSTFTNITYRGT
- Sequence (P06756 31-889 limits assumed): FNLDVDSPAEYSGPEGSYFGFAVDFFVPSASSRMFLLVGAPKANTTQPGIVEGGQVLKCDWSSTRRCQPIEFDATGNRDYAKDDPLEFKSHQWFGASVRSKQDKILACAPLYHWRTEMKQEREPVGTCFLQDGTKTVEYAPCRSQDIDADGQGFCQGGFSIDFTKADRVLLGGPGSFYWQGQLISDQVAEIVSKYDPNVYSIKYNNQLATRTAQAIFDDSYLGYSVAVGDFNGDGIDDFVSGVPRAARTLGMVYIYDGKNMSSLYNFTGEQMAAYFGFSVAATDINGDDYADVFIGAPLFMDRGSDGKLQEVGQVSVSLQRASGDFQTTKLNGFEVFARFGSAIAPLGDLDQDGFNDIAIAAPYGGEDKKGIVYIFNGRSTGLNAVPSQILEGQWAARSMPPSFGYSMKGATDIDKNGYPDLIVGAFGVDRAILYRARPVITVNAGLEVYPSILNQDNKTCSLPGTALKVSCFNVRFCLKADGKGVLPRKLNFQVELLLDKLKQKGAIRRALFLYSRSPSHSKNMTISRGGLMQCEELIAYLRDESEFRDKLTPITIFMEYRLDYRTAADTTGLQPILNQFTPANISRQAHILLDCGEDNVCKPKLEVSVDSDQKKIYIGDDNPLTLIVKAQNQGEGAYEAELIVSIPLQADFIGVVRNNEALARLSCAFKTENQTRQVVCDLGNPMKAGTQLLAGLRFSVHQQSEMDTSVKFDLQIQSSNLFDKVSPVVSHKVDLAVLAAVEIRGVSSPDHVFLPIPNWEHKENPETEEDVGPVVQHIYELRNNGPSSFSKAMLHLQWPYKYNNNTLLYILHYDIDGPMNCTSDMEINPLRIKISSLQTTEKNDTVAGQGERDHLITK
- Sequence (P06756 891-1048 limits assumed): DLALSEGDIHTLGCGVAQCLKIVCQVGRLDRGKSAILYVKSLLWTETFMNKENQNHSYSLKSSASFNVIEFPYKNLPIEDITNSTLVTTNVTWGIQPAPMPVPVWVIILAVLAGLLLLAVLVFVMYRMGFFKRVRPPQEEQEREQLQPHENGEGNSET
- Method Description: Inhibition of human alphaVbeta3 integrin expressed in human SK-MEL-24 cells assessed as inhibition of cell adhesion to fibronectin
pIC50: −log10 of the molar value.
Quantity Measured: pIC50

Cc1ccccc1NC(=O)Nc1ccc(CNC(=O)C2=CCN(C(=O)CC(=O)O)[C@@H]2C2CCCCC2)cc1 | < 6.00

# pIC50 measured on Integrin alpha-V/beta-3 (Homo sapiens, UniProt P05106+P06756) for item `Cc1ccccc1NC(=O)Nc1ccc(CNC(=O)C2=CCN(C(=O)CC(=O)O)[C@@H]2C(C)C)cc1` = < 6.00

====

- Method Description: Inhibition of human […] integrin expressed in human Jurkat cells assessed as inhibition of cell adhesion to ICAM1
- Assay type: cell-based
pIC50: −log10 of the molar value.
Quantity Measured: pIC50

Cc1ccccc1NC(=O)Nc1ccc(CNC(=O)C2=CCN(C(=O)CC(=O)O)[C@@H]2C2CCCCC2)cc1 | < 6.00

Moving on to the next compound.
Looking up `Cc1ccccc1NC(=O)Nc1ccc(CNC(=O)C2=CCN(C(=O)CC(=O)O)[C@@H]2C(C)C)cc1` , I see its pIC50 listed as < 6.00

====

- Subject Of Test: Integrin alpha-5/beta-1 (Homo sapiens, UniProt P05556+P08648)
- Method Description: Inhibition of human alpha5beta1 integrin expressed in human K-562 cells assessed as inhibition of cell adhesion to fibronectin
Listed here are molecules together with their documented IC50.

Cc1ccccc1NC(=O)Nc1ccc(CNC(=O)C2=CCN(C(=O)CC(=O)O)[C@@H]2C2CCCCC2)cc1 | > 1000 nM

Moving on to the next molecule.
# IC50 measured on Integrin alpha-5/beta-1 (Homo sapiens, UniProt P05556+P08648) for item `Cc1ccccc1NC(=O)Nc1ccc(CNC(=O)C2=CCN(C(=O)CC(=O)O)[C@@H]2C(C)C)cc1` = > 1000 nM

====

- Subject Of Test: Integrin alpha-4/beta-7 (Homo sapiens, UniProt P13612+P26010)
- Sequence (P26010 whole entry, one chain of several): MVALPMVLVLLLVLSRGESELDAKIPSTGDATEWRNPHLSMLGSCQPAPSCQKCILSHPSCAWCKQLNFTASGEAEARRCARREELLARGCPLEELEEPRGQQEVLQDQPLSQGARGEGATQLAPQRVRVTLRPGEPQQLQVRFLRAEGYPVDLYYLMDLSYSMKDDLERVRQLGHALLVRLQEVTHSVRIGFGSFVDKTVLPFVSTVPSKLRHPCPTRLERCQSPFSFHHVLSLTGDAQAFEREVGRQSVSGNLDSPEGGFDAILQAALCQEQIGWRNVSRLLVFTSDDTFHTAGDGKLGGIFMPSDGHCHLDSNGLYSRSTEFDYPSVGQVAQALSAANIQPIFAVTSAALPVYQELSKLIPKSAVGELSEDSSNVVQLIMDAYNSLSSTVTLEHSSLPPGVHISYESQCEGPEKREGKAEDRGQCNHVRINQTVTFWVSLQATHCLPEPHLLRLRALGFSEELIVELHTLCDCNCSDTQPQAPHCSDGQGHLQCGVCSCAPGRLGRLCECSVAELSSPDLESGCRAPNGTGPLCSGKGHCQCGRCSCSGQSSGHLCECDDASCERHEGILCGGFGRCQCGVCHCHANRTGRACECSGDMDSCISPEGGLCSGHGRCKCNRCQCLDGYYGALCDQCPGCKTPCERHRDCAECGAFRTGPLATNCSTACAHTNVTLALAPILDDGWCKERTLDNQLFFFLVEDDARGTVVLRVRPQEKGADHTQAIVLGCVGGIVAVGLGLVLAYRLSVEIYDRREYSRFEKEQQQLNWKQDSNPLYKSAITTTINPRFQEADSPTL
- Method Description: Inhibition of human alpha4beta7 integrin expressed in human RPMI8866 cells assessed as inhibition of cell adhesion to MadCam1
pIC50: −log10 of the molar value.
Quantity Measured: pIC50

Cc1ccccc1NC(=O)Nc1ccc(CNC(=O)C2=CCN(C(=O)CC(=O)O)[C@@H]2C2CCCCC2)cc1 | 6.46
Cc1ccccc1NC(=O)Nc1ccc(CNC(=O)C2=CCN(C(=O)CC(=O)O)[C@@H]2C(C)C)cc1 | 6.57
